Tested on: Pseudomonas aeruginosa PAO1-Xen41
Assay: Hill coefficient of concentration-effect curve (unitless); higher = steeper concentration-effect curve
Conditions: medium (conditioned by secondary species or non-conditioned control): S. aureus
metric.name: Hill coefficient
Give bare numbers.

Solved entries:
{"molecular.string": "CO[C@H]1/C=C/O[C@@]2(C)Oc3c(C)c(O)c4c(O)c(c(/C=N/N5CCN(C)CC5)c(O)c4c3C2=O)NC(=O)/C(C)=C\\C=C\\[C@H](C)[C@H](O)[C@@H](C)[C@@H](O)[C@@H](C)[C@H](OC(C)=O)[C@@H]1C", "Hill coefficient": 2.1}
{"molecular.string": "C[C@H]1[C@H](NC(=O)/C(=N\\OC(C)(C)C(=O)O)c2csc(N)n2)C(=O)N1S(=O)(=O)O", "Hill coefficient": 4.66}

Lab note: next compound to report on.
Report Hill coefficient for CC(C)(O/N=C(\C(=O)N[C@@H]1C(=O)N2C(C(=O)[O-])=C(C[n+]3ccccc3)CS[C@H]12)c1csc(N)n1)C(=O)O
3.04

---

Give log10 EC50 for every item shown.
Tested on: Pseudomonas aeruginosa PAO1-Xen41
Assay: EC50 of growth/kill rate concentration-effect curve
Conditions: medium (conditioned by secondary species or non-conditioned control): S. pneumoniae
For clarity, the numbers are log10 values of EC50 expressed in µg/mL.

Observe how each entry below is paired with its result.
{"compound": "C[C@@H](O)[C@H]1C(=O)N2C(C(=O)O)=C(S[C@@H]3CN[C@H](C(=O)N(C)C)C3)[C@H](C)[C@H]12", "log10 EC50": -0.03}
{"compound": "CCC(C)CCCC(=O)N[C@@H](CCN)C(=O)N[C@H](C(=O)N[C@@H](CCN)C(=O)N[C@H]1CCNC(=O)[C@H]([C@@H](C)O)NC(=O)[C@H](CCN)NC(=O)[C@H](CCN)NC(=O)[C@H](CC(C)C)NC(=O)[C@@H](CC(C)C)NC(=O)[C@H](CCN)NC1=O)[C@@H](C)O (some centres undefined)", "log10 EC50": -0.49}
{"compound": "CN(C)c1ccc(O)c2c1C[C@H]1C[C@H]3[C@H](N(C)C)C(O)=C(C(N)=O)C(=O)[C@@]3(O)C(O)=C1C2=O", "log10 EC50": 0.68}
{"compound": "NC[C@H]1O[C@H](O[C@H]2[C@H](O)[C@@H](O[C@H]3O[C@H](CO)[C@@H](O)[C@H](N)[C@H]3O)[C@H](N)C[C@@H]2N)[C@H](N)C[C@@H]1O", "log10 EC50": -0.33}
{"compound": "C[C@H]1[C@H](NC(=O)/C(=N\\OC(C)(C)C(=O)O)c2csc(N)n2)C(=O)N1S(=O)(=O)O", "log10 EC50": 0.75}

Provide reported log10 EC50 for each item, in the same order as listed.
1. CC(C)(O/N=C(\C(=O)N[C@@H]1C(=O)N2C(C(=O)[O-])=C(C[n+]3ccccc3)CS[C@H]12)c1csc(N)n1)C(=O)O
2. CO[C@H]1/C=C/O[C@@]2(C)Oc3c(C)c(O)c4c(O)c(c(/C=N/N5CCN(C)CC5)c(O)c4c3C2=O)NC(=O)/C(C)=C\C=C\[C@H](C)[C@H](O)[C@@H](C)[C@@H](O)[C@@H](C)[C@H](OC(C)=O)[C@@H]1C

[0.23, 1.32]

Working through the 2 compounds below one at a time, give log10 EC50 for each.
1. O=C(O)c1cn(C2CC2)c2cc(N3CCNCC3)c(F)cc2c1=O
2. C[C@@H]1O[C@@H]1P(=O)(O)O

1: -1.13; 2: 1.66

---

Give measured Hill coefficient for each item. Keep answers brief.
System: Pseudomonas aeruginosa PAO1-Xen41
Test: Hill coefficient of concentration-effect curve (unitless); higher = steeper concentration-effect curve
Settings: medium (conditioned by secondary species or non-conditioned control): S. aureus
Give bare numbers.

// solved cases for Hill coefficient follow
{"molecule": "NC[C@H]1O[C@H](O[C@H]2[C@H](O)[C@@H](O[C@H]3O[C@H](CO)[C@@H](O)[C@H](N)[C@H]3O)[C@H](N)C[C@@H]2N)[C@H](N)C[C@@H]1O", "experimental.system": "Pseudomonas aeruginosa PAO1-Xen41", "Hill coefficient": 10}
{"molecule": "C[C@@H]1O[C@@H]1P(=O)(O)O", "experimental.system": "Pseudomonas aeruginosa PAO1-Xen41", "Hill coefficient": 3.29}

Would you mind giving Hill coefficient for every molecule in the list below?
1. C[C@@H](O)[C@H]1C(=O)N2C(C(=O)O)=C(S[C@@H]3CN[C@H](C(=O)N(C)C)C3)[C@H](C)[C@H]12
2. O=C(O)c1cn(C2CC2)c2cc(N3CCNCC3)c(F)cc2c1=O
3. CN(C)c1ccc(O)c2c1C[C@H]1C[C@H]3[C@H](N(C)C)C(O)=C(C(N)=O)C(=O)[C@@]3(O)C(O)=C1C2=O
4. CCC(C)CCCC(=O)N[C@@H](CCN)C(=O)N[C@H](C(=O)N[C@@H](CCN)C(=O)N[C@H]1CCNC(=O)[C@H]([C@@H](C)O)NC(=O)[C@H](CCN)NC(=O)[C@H](CCN)NC(=O)[C@H](CC(C)C)NC(=O)[C@@H](CC(C)C)NC(=O)[C@H](CCN)NC1=O)[C@@H](C)O (stereo partly specified)

1. 10
2. 5.13
3. 0.785
4. 2.47

---

Tested on: Pseudomonas aeruginosa PAO1-Xen41
Assay: EC50 of growth/kill rate concentration-effect curve
Conditions: medium (conditioned by secondary species or non-conditioned control): A. fumigatus
Rule: EC50 below 4 µg/mL gives true (1). Equal to or above 4 µg/mL gives false (0).

Would you please look over these solved cases?
{"molecule": "CO[C@H]1/C=C/O[C@@]2(C)Oc3c(C)c(O)c4c(O)c(c(/C=N/N5CCN(C)CC5)c(O)c4c3C2=O)NC(=O)/C(C)=C\\C=C\\[C@H](C)[C@H](O)[C@@H](C)[C@@H](O)[C@@H](C)[C@H](OC(C)=O)[C@@H]1C [rifampicin]", "group.label": "false (0)"}
{"molecule": "O=C(O)c1cn(C2CC2)c2cc(N3CCNCC3)c(F)cc2c1=O [ciprofloxacin]", "group.label": "true (1)"}

Does C[C@@H]1O[C@@H]1P(=O)(O)O [fosfomycin] have EC50 strictly under 4 µg/mL?
false (0)

Record NC[C@H]1O[C@H](O[C@H]2[C@H](O)[C@@H](O[C@H]3O[C@H](CO)[C@@H](O)[C@H](N)[C@H]3O)[C@H](N)C[C@@H]2N)[C@H](N)C[C@@H]1O [tobramycin] : is its EC50 strictly below 4 µg/mL?
true (1)

hey, is EC50 for C[C@@H](O)[C@H]1C(=O)N2C(C(=O)O)=C(S[C@@H]3CN[C@H](C(=O)N(C)C)C3)[C@H](C)[C@H]12 [meropenem] lower than 4 µg/mL or not?
true (1)

Please indicate whether the reported EC50 of CN(C)c1ccc(O)c2c1C[C@H]1C[C@H]3[C@H](N(C)C)C(O)=C(C(N)=O)C(=O)[C@@]3(O)C(O)=C1C2=O [minocycline] is strictly below 4 µg/mL.
false (0)

Record C[C@H]1[C@H](NC(=O)/C(=N\OC(C)(C)C(=O)O)c2csc(N)n2)C(=O)N1S(=O)(=O)O [aztreonam] : is its EC50 strictly below 4 µg/mL?
false (0)

Regarding CC(C)(O/N=C(\C(=O)N[C@@H]1C(=O)N2C(C(=O)[O-])=C(C[n+]3ccccc3)CS[C@H]12)c1csc(N)n1)C(=O)O [ceftazidime] , kindly confirm whether its EC50 is beneath 4 µg/mL.
true (1)

---

Tested on: Pseudomonas aeruginosa PAO1-Xen41
Assay: EC50 of growth/kill rate concentration-effect curve
Details: medium (conditioned by secondary species or non-conditioned control): M. avium
Kindly state EC50 for each of the entries shown.
One number for each entry, in µg/mL.

{"compound": "CC(C)(O/N=C(\\C(=O)N[C@@H]1C(=O)N2C(C(=O)[O-])=C(C[n+]3ccccc3)CS[C@H]12)c1csc(N)n1)C(=O)O", "observed": 1.19}

Report EC50 for each item below.
1. O=C(O)c1cn(C2CC2)c2cc(N3CCNCC3)c(F)cc2c1=O
2. CCC(C)CCCC(=O)N[C@@H](CCN)C(=O)N[C@H](C(=O)N[C@@H](CCN)C(=O)N[C@H]1CCNC(=O)[C@H]([C@@H](C)O)NC(=O)[C@H](CCN)NC(=O)[C@H](CCN)NC(=O)[C@H](CC(C)C)NC(=O)[C@@H](CC(C)C)NC(=O)[C@H](CCN)NC1=O)[C@@H](C)O (stereo not given in full)

0.0646
1.04

For the 2 compounds below, give their EC50 values.
1. CO[C@H]1/C=C/O[C@@]2(C)Oc3c(C)c(O)c4c(O)c(c(/C=N/N5CCN(C)CC5)c(O)c4c3C2=O)NC(=O)/C(C)=C\C=C\[C@H](C)[C@H](O)[C@@H](C)[C@@H](O)[C@@H](C)[C@H](OC(C)=O)[C@@H]1C
2. CN(C)c1ccc(O)c2c1C[C@H]1C[C@H]3[C@H](N(C)C)C(O)=C(C(N)=O)C(=O)[C@@]3(O)C(O)=C1C2=O

1. 72
2. 6.33

Origin of values: the supplement of paper PMC11619387
